Molecular target: p50p50 homodimer (Homo sapiens, UniProt P19838 7-356)
Sequence (P19838 7-356): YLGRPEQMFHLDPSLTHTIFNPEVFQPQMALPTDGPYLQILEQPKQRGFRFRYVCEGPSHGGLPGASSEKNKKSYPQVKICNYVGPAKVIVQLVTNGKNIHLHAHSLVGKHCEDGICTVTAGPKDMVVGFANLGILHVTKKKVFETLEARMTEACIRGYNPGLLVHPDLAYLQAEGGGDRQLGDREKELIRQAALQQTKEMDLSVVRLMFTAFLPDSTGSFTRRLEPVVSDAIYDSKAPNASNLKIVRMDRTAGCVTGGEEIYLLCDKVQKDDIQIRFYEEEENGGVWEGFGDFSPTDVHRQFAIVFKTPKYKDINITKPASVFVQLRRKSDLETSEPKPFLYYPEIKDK
Test: protein binding microarray; high values mean tight binding
Conditions: dsDNA, one strand shown
Items are presented alongside their recorded binding signal.
Give just the number in z-score; leave the unit off.

Study these solved cases before continuing.
| RESIDUE CODES | UNIT SPEC | binding signal |
| --- | --- | --- |
| CAGTGGGTCCT | z-score | -1.79 |
| GAGTGCTTCCC | z-score | -0.398 |
| CGATGTGTCCC | z-score | -0.155 |

Task: Any idea what binding signal was measured for AAAGTCATCCC ?
Output: -0.925

Task: Follow-up item: CGGGAACCCCC
Output: 0.986

Task: // repeat for CAAATCTCCCT and report
Output: 1.24

Task: Another sequence: CAGATACTCCC
Output: -0.181

Task: // same read-out, input: AGAGACCTCCC
Output: -0.985

Task: GAGAATTCCCT , same question.
Output: 1.39

Task: # repeat for AAAGGACTCCT
Output: -1.11

Task: Can you check GAATTCGCCCT next?
Output: -0.928

Task: Query CGGGAAGCCCT next
Output: -0.369

Task: Field entry: CAGGGCTCCCT
Output: -0.631

Task: Input GGAGGATCCCC
Output: 1.03
